# system_tested: T1, CTLA4 on the cells of the reporter gene bioassay (human, UniProt P16410 36-223)
# T1 sequence (looked up): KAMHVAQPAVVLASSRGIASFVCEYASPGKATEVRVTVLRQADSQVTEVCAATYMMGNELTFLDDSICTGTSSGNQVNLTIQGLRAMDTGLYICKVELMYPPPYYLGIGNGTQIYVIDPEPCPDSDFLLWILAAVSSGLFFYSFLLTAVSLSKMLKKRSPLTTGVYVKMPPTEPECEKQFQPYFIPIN
# method_summary: cell-based or functional assay
Each entry below carries its recorded Relative Potency (%).
Expressed in %, but write only the number.

Entry Tremelimumab incubated in human serum at 37° C., week 2 (antibody, human IgG2, kappa, V domains shown, Asn-30 deamidated in 22.9% (peptide mapping)) VH: QVQLVESGGGVVQPGRSLRLSCAASGFTFSSYGMHWVRQAPGKGLEWVAVIWYDGSNKYYADSVKGRFTISRDNSKNTLYLQMNSLRAEDTAVYYCARDPRGATLYYYYYGMDVWGQGTTVTVSS VL: DIQMTQSPSSLSASVGDRVTITCRASQSINSYLDWYQQKPGKAPKLLIYAASSLQSGVPSRFSGSGSGTDFTLTISSLQPEDFATYYCQQYYSTPFTFGPGTKVEIKR , Relative Potency (%) reported as 91

Entry Tremelimumab incubated in human serum at 37° C., week 0 (antibody, human IgG2, kappa, V domains shown, Asn-30 deamidated in 3.4% (peptide mapping)) VH: QVQLVESGGGVVQPGRSLRLSCAASGFTFSSYGMHWVRQAPGKGLEWVAVIWYDGSNKYYADSVKGRFTISRDNSKNTLYLQMNSLRAEDTAVYYCARDPRGATLYYYYYGMDVWGQGTTVTVSS VL: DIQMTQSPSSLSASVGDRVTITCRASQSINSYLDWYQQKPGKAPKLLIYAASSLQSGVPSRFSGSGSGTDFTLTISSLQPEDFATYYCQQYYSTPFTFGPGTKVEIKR , Relative Potency (%) reported as 106

These measurements were taken from patent US20250340643A1.
